Test system: M. arginini G230
MEASUREMENT DESCRIPTION: Anti-mycoplasmal activity (MIC), agar-dilution method
Type: cell-based, Mycoplasma arginini
PARTICULARS: Mycoplasmopsis arginini; agar dilution; M. arginini G230; read-out: MIC
MEASURED PARAMETER: MIC (µg/mL)
Report as a plain number; the unit µg/mL is understood.

q: Returns the measured MIC for the input compound. Input: NCC1CN(c2c(F)c(N)c3c(=O)c(C(=O)O)cn(C4CC4)c3c2F)CCO1 (stereo not shown) [Compound A]
a: 0.05

q: Returns the measured MIC for the input compound. Input: CC1COc2c(N3CCN(C)CC3)c(F)cc3c(=O)c(C(=O)O)cn1c23 (stereo not shown) [Compound 4]
a: 0.78

q: Returns the measured MIC for the input compound. Input: CC1CN(c2c(F)c(N)c3c(=O)c(C(=O)O)cn(C4CC4)c3c2F)CCN1 (stereo not shown) [Compound 1]
a: 0.1

q: Returns the measured MIC for the input compound. Input: CN(C)c1ccc(O)c2c1C[C@H]1C[C@H]3[C@H](N(C)C)C(O)=C(C(N)=O)C(=O)[C@@]3(O)C(O)=C1C2=O [Compound 3, minocycline]
a: 0.39
